Data provenance is patent US11925690B2.

Listing of recorded Dmax by entry.
target: Brd3 (Homo sapiens); experiment: Concentration-dependent BET degradation, immunoblot; assay type: cell-based; design: endogenous in cells; host or cells: HEK293 (CRL-1573), HeLa (CCL-2); details: HEK293, Brd3, 4 h, 1 nM-10 μM

As a guide, the following entries are already answered.
{"columns": ["COMPOUND", "Dmax"],
 "data": [
  ["Cc1sc2c(c1C)C(c1ccc(Cl)cc1)=N[C@@H](CC(=O)NCCCCNC(=O)c1cc(S)c3ncc(C(=O)NCc4ccc(F)cc4)cc3c1)c1nnc(C)n1-2 [Example 11JQ12]", "26 to 50%"],
  ["Cc1sc2c(c1C)C(c1ccc(Cl)cc1)=N[C@@H](CC(=O)NCCOCCNC(=O)c1cc(SC(C)(C)C)c3ncc(C(=O)NCCc4nccs4)cc3c1)c1nnc(C)n1-2 [Example 11JQ17]", "≤ 25%"],
  ["Cc1sc2c(c1C)C(c1ccc(Cl)cc1)=N[C@@H](CC(=O)NCCOCCNC(=O)c1cc(SC(=O)c3ccccc3)c3ncc(C(=O)NCCc4nccs4)cc3c1)c1nnc(C)n1-2 [Example 11JQ15]", "26 to 50%"],
  ["Cc1sc2c(c1C)C(c1ccc(Cl)cc1)=N[C@@H](CC(=O)NCCOCCNC(=O)c1cc(S)c3ncc(C(=O)NCCc4nccs4)cc3c1)c1nnc(C)n1-2 [Example 11JQ1]", "51 to 70%"]
]}

Item under review: Cc1sc2c(c1C)C(c1ccc(Cl)cc1)=N[C@@H](CC(=O)NCCCCNC(=O)c1cc(SC(=O)c3ccccc3)c3ncc(C(=O)NCCc4nccs4)cc3c1)c1nnc(C)n1-2 [Example 11JQ16] . Reported Dmax? ≥ 71%

State the recorded Dmax for this entry: Cc1sc2c(c1C)C(c1ccc(Cl)cc1)=N[C@@H](CC(=O)NCCCCNC(=O)c1cc(S)c3ncc(C(=O)NCCc4nccs4)cc3c1)c1nnc(C)n1-2 [Example 11JQ7] ≥ 71%

----------
molecular target: Brd4 (S) (Homo sapiens); construct: endogenous in cells; host or cells: HEK293 (CRL-1573), HeLa (CCL-2); experiment: Time-dependent BET degradation, immunoblot; type: cell-based; set-up: dose or concentration left out as unconfirmed; conditions: HEK293, Brd4 (S), 0-24 hrs
METRIC_NAME: Dmax (%)

{"columns": ["COMPOUND", "Dmax, %"],
 "data": [
  ["Cc1sc2c(c1C)C(c1ccc(Cl)cc1)=N[C@@H](CC(=O)NCCCCNC(=O)c1cc(S)c3ncc(C(=O)NCCc4nccs4)cc3c1)c1nnc(C)n1-2 [Example 11JQ7]", 99],
  ["Cc1sc2c(c1C)C(c1ccc(Cl)cc1)=N[C@@H](CC(=O)NCCOCCNC(=O)c1cc(S)c3ncc(C(=O)NCCc4nccs4)cc3c1)c1nnc(C)n1-2 [Example 11JQ1]", 95],
  ["Cc1sc2c(c1C)C(c1ccc(Cl)cc1)=N[C@@H](CC(=O)NCCOCCNC(=O)c1cc(SC(=O)c3ccccc3)c3ncc(C(=O)NCCc4nccs4)cc3c1)c1nnc(C)n1-2 [Example 11JQ15]", 90],
  ["Cc1sc2c(c1C)C(c1ccc(Cl)cc1)=N[C@@H](CC(=O)NCCCCNC(=O)c1cc(SC(=O)c3ccccc3)c3ncc(C(=O)NCCc4nccs4)cc3c1)c1nnc(C)n1-2 [Example 11JQ16]", 95]
]}

----------
Target: Brd4 (L) (Homo sapiens, UniProt O60885)
Construct: endogenous in cells; host or cells: HEK293 (CRL-1573), HeLa (CCL-2)
Assay: Concentration-dependent BET degradation, immunoblot
Type: cell-based
Details: HEK293, Brd4 (L), 4 h, 1 nM-10 μM
Protocol: Immunoblotting. Proteins were separated by SDS-PAGE on NuPage 4-12% Bis-Tris gels, followed by transfer to Amersham Protran 0.45 NC nitrocellulose membrane (GE Healthcare) using wet transfer. Membranes were blocked using 5% w/v milk in Tris-buffered saline (TBS) with 0.1% Tween-20. […] Blots were developed using a Bio-Rad ChemiDoc MP Imaging System, and band quantification was performed using Image Studio software (LiCor). […] Degradation data was plotted and analysed using Prism (Graphpad, version 8). […]
METRIC_NAME: Dmax

Some entries whose results are on file:
{"columns": ["MOLECULE", "TARGET_SYSTEM", "Dmax"],
 "data": [
  ["Cc1sc2c(c1C)C(c1ccc(Cl)cc1)=N[C@@H](CC(=O)NCCCCNC(=O)c1cc(S)c3ncc(C(=O)NCc4ccc(F)cc4)cc3c1)c1nnc(C)n1-2 [Example 11JQ12]", "Brd4 (L) (Homo sapiens, UniProt O60885)", "≥ 71%"],
  ["Cc1sc2c(c1C)C(c1ccc(Cl)cc1)=N[C@@H](CC(=O)NCCOCCNC(=O)c1cc(SC(=O)c3ccccc3)c3ncc(C(=O)NCCc4nccs4)cc3c1)c1nnc(C)n1-2 [Example 11JQ15]", "Brd4 (L) (Homo sapiens, UniProt O60885)", "51 to 70%"],
  ["Cc1sc2c(c1C)C(c1ccc(Cl)cc1)=N[C@@H](CC(=O)NCCOCCNC(=O)c1cc(S)c3ncc(C(=O)NCCc4nccs4)cc3c1)c1nnc(C)n1-2 [Example 11JQ1]", "Brd4 (L) (Homo sapiens, UniProt O60885)", "≥ 71%"],
  ["Cc1sc2c(c1C)C(c1ccc(Cl)cc1)=N[C@@H](CC(=O)NCCCCNC(=O)c1cc(S)c3ncc(C(=O)NCCc4nccs4)cc3c1)c1nnc(C)n1-2 [Example 11JQ7]", "Brd4 (L) (Homo sapiens, UniProt O60885)", "≥ 71%"],
  ["Cc1sc2c(c1C)C(c1ccc(Cl)cc1)=N[C@@H](CC(=O)NCCCCNC(=O)c1cc(SC(=O)c3ccccc3)c3ncc(C(=O)NCCc4nccs4)cc3c1)c1nnc(C)n1-2 [Example 11JQ16]", "Brd4 (L) (Homo sapiens, UniProt O60885)", "≥ 71%"]
]}

With those in mind, consider the next molecule.
Which Dmax value is on record for Cc1sc2c(c1C)C(c1ccc(Cl)cc1)=N[C@@H](CC(=O)NCCOCCNC(=O)c1cc(SC(C)(C)C)c3ncc(C(=O)NCCc4nccs4)cc3c1)c1nnc(C)n1-2 [Example 11JQ17] ? ≤ 25%

----------
biological target: Brd3 (Homo sapiens, UniProt Q15059); assay: Time-dependent BET degradation, immunoblot; assay type: cell-based; conditions: HEK293, Brd3, 1 μM; time to deplete 50% of the protein relative to DMSO
Sequence (Q15059 whole entry): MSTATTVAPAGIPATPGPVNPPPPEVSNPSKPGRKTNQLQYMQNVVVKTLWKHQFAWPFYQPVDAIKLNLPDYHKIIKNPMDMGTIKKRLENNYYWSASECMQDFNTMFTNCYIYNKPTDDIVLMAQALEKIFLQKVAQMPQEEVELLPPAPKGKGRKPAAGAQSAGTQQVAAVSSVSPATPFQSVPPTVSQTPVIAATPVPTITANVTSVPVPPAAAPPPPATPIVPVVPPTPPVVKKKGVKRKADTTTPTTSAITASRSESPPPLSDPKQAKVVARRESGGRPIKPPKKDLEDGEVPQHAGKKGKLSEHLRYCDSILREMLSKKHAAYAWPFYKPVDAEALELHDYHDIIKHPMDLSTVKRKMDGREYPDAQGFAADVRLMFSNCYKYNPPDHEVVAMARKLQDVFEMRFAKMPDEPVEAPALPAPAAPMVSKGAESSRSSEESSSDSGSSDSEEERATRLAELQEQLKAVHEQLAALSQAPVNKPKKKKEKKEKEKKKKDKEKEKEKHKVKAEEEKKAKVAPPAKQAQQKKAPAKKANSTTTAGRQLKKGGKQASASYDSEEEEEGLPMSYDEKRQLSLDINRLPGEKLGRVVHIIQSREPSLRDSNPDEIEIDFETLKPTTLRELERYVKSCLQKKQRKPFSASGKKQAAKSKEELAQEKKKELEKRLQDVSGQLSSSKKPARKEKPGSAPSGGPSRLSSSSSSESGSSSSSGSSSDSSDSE
METRIC_NAME: Abs. T1/2 (h)

{"columns": ["SMILES_RECORD", "TARGET_SYSTEM", "REPORTED_RESULT"],
 "data": [
  ["Cc1sc2c(c1C)C(c1ccc(Cl)cc1)=N[C@@H](CC(=O)NCCOCCNC(=O)c1cc(S)c3ncc(C(=O)NCCc4nccs4)cc3c1)c1nnc(C)n1-2", "Brd3 (Homo sapiens, UniProt Q15059)", 3.5],
  ["Cc1sc2c(c1C)C(c1ccc(Cl)cc1)=N[C@@H](CC(=O)NCCOCCNC(=O)c1cc(SC(=O)c3ccccc3)c3ncc(C(=O)NCCc4nccs4)cc3c1)c1nnc(C)n1-2", "Brd3 (Homo sapiens, UniProt Q15059)", 2.6]
]}

P = Cc1sc2c(c1C)C(c1ccc(Cl)cc1)=N[C@@H](CC(=O)NCCCCNC(=O)c1cc(S)c3ncc(C(=O)NCCc4nccs4)cc3c1)c1nnc(C)n1-2
Q = Cc1sc2c(c1C)C(c1ccc(Cl)cc1)=N[C@@H](CC(=O)NCCCCNC(=O)c1cc(SC(=O)c3ccccc3)c3ncc(C(=O)NCCc4nccs4)cc3c1)c1nnc(C)n1-2
Higher Abs. T1/2 between P and Q ? Record your answer as the label of the chosen record. P

----------
biological target: Brd4 (L) (Homo sapiens); construct: endogenous in cells; host or cells: HEK293 (CRL-1573), HeLa (CCL-2); experiment: Time-dependent BET degradation, immunoblot; type: cell-based; parameters: dose or concentration left out as unconfirmed; settings: HEK293, Brd4 (L), 0-24 hrs
METRIC_NAME: Dmax (%)

{"columns": ["SMILES_RECORD", "Dmax [%]"],
 "data": [
  ["Cc1sc2c(c1C)C(c1ccc(Cl)cc1)=N[C@@H](CC(=O)NCCCCNC(=O)c1cc(S)c3ncc(C(=O)NCCc4nccs4)cc3c1)c1nnc(C)n1-2", 98],
  ["Cc1sc2c(c1C)C(c1ccc(Cl)cc1)=N[C@@H](CC(=O)NCCOCCNC(=O)c1cc(S)c3ncc(C(=O)NCCc4nccs4)cc3c1)c1nnc(C)n1-2", 95],
  ["Cc1sc2c(c1C)C(c1ccc(Cl)cc1)=N[C@@H](CC(=O)NCCCCNC(=O)c1cc(SC(=O)c3ccccc3)c3ncc(C(=O)NCCc4nccs4)cc3c1)c1nnc(C)n1-2", 98],
  ["Cc1sc2c(c1C)C(c1ccc(Cl)cc1)=N[C@@H](CC(=O)NCCOCCNC(=O)c1cc(SC(=O)c3ccccc3)c3ncc(C(=O)NCCc4nccs4)cc3c1)c1nnc(C)n1-2", 90]
]}
